test system: SF-268 CNS; test: NCI tumour cell line growth inhibition, 48 h
*1 amine or outer side, *2 acyl side, *3 side chain or, on linkers, in order; H or OH if unused. Where a SMILES comes first, the peptide text is derived from it. Bridges are numbered along the chain shown (N, C = ends). Roman numbers before positions name the chains, in order. [ ]: non-standard residue; d: D form. Actinocin(9to1) = Cc1c2oc3c(C)ccc(C(=O)[*:1])c3nc-2c(C(=O)[*:2])c(N)c1=O; NMeV = CN[CH](C(=O)O)C(C)C; Sar = CNCC(=O)O
Measurement Kind: TGI

Reference set, count: 8
INSERT INTO assay_data (compound, target_of_assay, measurement_kind, value) VALUES
  ('Cc1c(Cl)c(=O)oc2cc(OCC(O)COC(C)C)ccc12 (stereo not drawn)', 'SF-268 CNS', 'TGI', '> 100 µM'),
  ('O=C1CCC(Cc2ccc(Cl)cc2Cl)C(=O)N1 (stereo not drawn)', 'SF-268 CNS', 'TGI', '> 100 µM'),
  ('CCCN(CCCCC(NC(C)=O)C(=O)NCc1ccccc1)C(=O)NCCCl (stereo not drawn)', 'SF-268 CNS', 'TGI', '> 100 µM'),
  ('Cc1c2oc3c(C)ccc(C(=O)NC4C(=O)NC(Cc5ccc(O)cc5)C(=O)N5CCCC5C(=O)N(C)CC(=O)N(C)C(C(C)C)C(=O)OC4C)c3nc-2c(C(=O)NC2C(=O)NC(Cc3ccc(O)cc3)C(=O)N3CCCC3C(=O)N(C)CC(=O)N(C)C(C(C)C)C(=O)OC2C)c(N)c1=O (stereo not drawn) (I: TYP[Sar][NMeV] / II: TYP[Sar][NMeV]; ester I:1-I:C, II:1-II:C; linker I:N-II:N via Actinocin(9to1); configuration not given here)', 'SF-268 CNS', 'TGI', '> 100 µM'),
  ('O=C1c2c(O)cccc2Cc2cccc(O)c21', 'SF-268 CNS', 'TGI', '3.25 µM'),
  ('CC(=O)NC1C(OCc2ccccc2)OC(CO)C(O)C1OCC(=O)N[C@@H](C)C(=O)N[C@H](CCC(=O)NCCCCNc1c2ccccc2nc2cccc([N+](=O)[O-])c12)C(N)=O (stereo partly drawn)', 'SF-268 CNS', 'TGI', '14.5 µM'),
  ('CC(O)/C=C/C(CCC(C)CO)C(C)C (stereo not drawn)', 'SF-268 CNS', 'TGI', '> 100 µM'),
  ('O=C1/C(=C/C=C/c2ccccc2)CCC1CNc1ccc(Br)cc1 (stereo not drawn)', 'SF-268 CNS', 'TGI', '> 100 µM');

Request the reported TGI associated with "CCOC(=O)/C(C1=N[C@H](C(=O)OCC)CS1)=C(\O)c1ccccc1"
> 100 µM

Request the reported TGI associated with "c1ccc(Cc2nc3ccc(Nc4ncnc5ccccc45)cc3[nH]2)cc1"
> 25 µM

Request the reported TGI associated with "CCCCCCCCCC(=O)CC(=O)c1ccc(O)cc1O"
> 100 µM

Request the reported TGI associated with "O=C1Sc2cc3ccccc3cc2C(=O)Sc2cc3ccccc3cc21"
> 83.7 µM

Request the reported TGI associated with "O=C(/C=C/c1ccc(OCC(=O)N2CCN(c3ccccc3)CC2)cc1)c1ccc(Cl)cc1"
> 92.7 µM

###

Listing: TGI of selected compounds
system: COLO 205 colon; assay: NCI tumour cell line growth inhibition, 48 h
Please state the figure in µM; there is no need to write the unit.

Reference set, count: 4
INSERT INTO results (compound, measurement_kind, value) VALUES
  ('Cc1ccc(C(=O)Nc2ccc(CN3CCN(C)CC3)c(C(F)(F)F)c2)cc1C#Cc1cnc(N)cc1C#N', 'TGI', 0.714),
  ('CC(=O)NC1C(OCc2ccccc2)OC(CO)C(O)C1OCC(=O)N[C@@H](C)C(=O)N[C@H](CCC(=O)NCCCCNc1c2ccccc2nc2cccc([N+](=O)[O-])c12)C(N)=O (some centres undefined)', 'TGI', 3.33),
  ('O=c1cccc(C#CC#C[C@H]2O[C@@H]2CO)o1', 'TGI', 1.58),
  ('COc1cc(Nc2nc3cc(N)cc(N)c3nc2-c2ccccc2)cc(OC)c1', 'TGI', 31.4);

Request the reported TGI associated with "OCCCCC#Cc1ccccc1C#Cc1ccccc1"
36.3

Request the reported TGI associated with "O=c1[nH]nc(N/N=C\c2ccc(Cl)cc2)c2ccccc12"
45.9

Request the reported TGI associated with COCCN(C(=O)c1ccccc1)C1CCC(=O)c2[nH]c3ccccc3c21 (centres undefined)
31.5

Request the reported TGI associated with Cc1c(Cl)c(=O)oc2cc(OCC(O)COC(C)C)ccc12 (centres undefined)
47.8

Request the reported TGI associated with "C[C@@H]1C=C(CCCCCCCCCCC[C@H](O)[C@@H]2CCC(=O)O2)C(=O)O1"
40.6

Request the reported TGI associated with "O=C1/C(=C(/Br)I)c2ccccc2-c2ccccc21"
4.22

Request the reported TGI associated with "O=C(O)c1cc2ccccc2c(O)c1O"
31.4

Request the reported TGI associated with "CCN(CC)c1ccc(/C=C\c2cc(C)c3cc(C)ccc3n2)cc1"
18.5

Request the reported TGI associated with "NC(=O)c1cnc(N[C@@H]2CCCC[C@@H]2N)nc1Nc1cccc(-n2nccn2)c1"
4.56

Request the reported TGI associated with "COC(C[C@H]1CCCC[C@]1(O)/C(=C\CO[Si](C(C)C)(C(C)C)C(C)C)Sc1ccccc1)OC"
47.4

Request the reported TGI associated with "C=C1C(=O)O[C@H]2[C@H]1CC/C(COC(=O)NCc1cc3ccccc3[nH]1)=C\CC[C@@]1(C)O[C@@H]21"
3.59

Request the reported TGI associated with "O=[N+]([O-])c1cccc([N+](=O)[O-])c1Cl"
91.2

Request the reported TGI associated with "CCn1c(SCc2nnc(Nc3ccccc3)s2)nc2ccccc2c1=O"
43.2

###

Listing: TGI of selected compounds
tested on: SK-MEL-2 melanoma; experiment: NCI tumour cell line growth inhibition, 48 h

INSERT INTO results (compound, value) VALUES
  ('COc1ccc(OC)c(-c2cn3c(n2)sc2ccccc23)c1', '> 100 µM'),
  ('O=C(O)CNc1c2ccccc2nc2ccccc12', '> 100 µM'),
  ('CC(C)(C)N1CCC1C(N)=O (stereo unspecified)', '> 100 µM');

Request the reported TGI associated with "CC(=O)CCCCCCCCCCCC[C@@H]1CC[C@H](C)[C@H](O)N1"
> 100 µM

Request the reported TGI associated with O=P1(N(CCCl)CCCl)NCCCO1 (stereo unspecified)
> 238 µM

Request the reported TGI associated with "CCOC(=O)c1c(SCCN2CCCCC2)n(-c2ccccc2)c(=S)n(-c2ccccc2)c1=O"
> 100 µM

Request the reported TGI associated with "Oc1ccc(O)c(Sc2nnc(CCCCCCCCc3nnc(Sc4cc(O)ccc4O)o3)o2)c1"
> 100 µM

Request the reported TGI associated with C/C=C\C(CC(=O)NCCc1c[nH]c2ccccc12)CC(=O)OC (stereo unspecified)
> 100 µM

Request the reported TGI associated with "O=C(c1ccccc1)c1ccc2nc(-c3c(Cl)c(Cl)c(Cl)c(Cl)c3C(=O)Nc3ccco3)[nH]c2c1"
80.4 µM

Request the reported TGI associated with COC(=O)C1=C(C)N(NC(N)=O)C2(N)N(NC(N)=O)C(C)=C(C(=O)OC)C12C(=O)OC (stereo unspecified)
> 100 µM

Request the reported TGI associated with "Clc1ccc(Cc2nc3ccccc3nc2-c2cccc(Cl)c2)cc1"
8.11 µM

###

Listing: TGI of selected molecules
system: HCT-116 colon; assay: NCI tumour cell line growth inhibition, 48 h

Reference set, count: 5
INSERT INTO results (molecule, value) VALUES
  ('COC(CC1(CCNc2ccccc2)C(=O)N(COCC[Si](C)(C)C)c2ccccc21)OC (stereo unspecified)', '32.5 µM'),
  ('c1cc2c3c(c1)[C@@H]1O[C@@H]1c1cccc(c1-3)[C@@H]1O[C@H]21', '38.5 µM'),
  ('Oc1ccc(O)c(Sc2nnc(CCCCCCCCc3nnc(Sc4cc(O)ccc4O)o3)o2)c1', '32.5 µM'),
  ('Cc1cn(C2CC(F)C(CO)O2)c(=O)[nH]c1=O (stereo unspecified)', '> 100 µM'),
  ('CC(C)(C)N1CCC1C(N)=O (stereo unspecified)', '> 100 µM');

Record "O=c1c2ccccc2c2ccccc2c(=O)n1-c1cc2c3ccccc3ccc2c2ccccc12" : what is its TGI with HCT-116 colon?
> 100 µM

Record "Cc1cccc(=O)c([O-])c1.Cc1cccc(=O)c([O-])c1.Cc1cccc(=O)c([O-])c1.Cc1cccc(=O)c([O-])c1.[Th+4]" : what is its TGI with HCT-116 colon?
35 µM

Record CC1Cc2c(cc(N)nc2Br)NC1=O (stereo unspecified) : what is its TGI with HCT-116 colon?
> 100 µM

Where do these numbers come from? They come from PubChem BioAssay (NCI).
